Molecular target: Muscarinic acetylcholine receptor M4 (Homo sapiens) (UniProt P08173)
Sequence (P08173 whole entry, looked up): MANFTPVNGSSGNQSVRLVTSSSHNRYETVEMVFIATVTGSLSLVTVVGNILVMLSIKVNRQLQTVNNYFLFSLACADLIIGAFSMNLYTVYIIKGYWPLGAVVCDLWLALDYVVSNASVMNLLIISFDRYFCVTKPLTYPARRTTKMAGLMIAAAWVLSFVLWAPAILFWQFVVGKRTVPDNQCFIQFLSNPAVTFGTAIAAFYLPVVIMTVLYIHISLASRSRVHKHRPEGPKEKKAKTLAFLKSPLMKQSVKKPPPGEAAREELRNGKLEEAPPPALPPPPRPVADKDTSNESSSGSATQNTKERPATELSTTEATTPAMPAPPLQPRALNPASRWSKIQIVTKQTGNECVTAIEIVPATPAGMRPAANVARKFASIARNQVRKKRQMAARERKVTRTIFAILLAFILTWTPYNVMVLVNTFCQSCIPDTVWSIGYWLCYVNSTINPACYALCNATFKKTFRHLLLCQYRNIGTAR
Assay: M4-linked GIRK flux change, two-sided – cell-based, HEK293 M4/GIRK, thallium flux, BTC-AM, M4 allosteric agonist project, primary screen (AID 625);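 note: thallium influx through GIRK channels coupled to M4 in HEK293 cells with BTC-AM dye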
Conditions: at 10 µM, actives lie on both sides
Under this convention, yes denotes fluorescence slope strictly below 0.005 and no denotes fluorescence slope at or above 0.005.

>>> category_label("CC(=O)c1cccc(NC(=O)N2C3CCC2CC(O)(c2cccnc2)C3)c1 (stereo unspecified)")
"no"
>>> category_label("CCOC(=O)c1c(C)c(C(=O)NCC2CCCO2)c(C)n1C (stereo unspecified)")
"no"
>>> category_label("COC(=O)c1[nH]c2cc(OC)ccc2c1NC(=O)CCN1CCCCC1")
"yes"
>>> category_label("CN1CCc2nc(SCC(=O)Nc3ccc(F)cc3)c(C#N)cc2C1")
"no"
>>> category_label("COCCNC(=O)c1cc2c(-c3ccccc3F)nn(C)c2s1")
"yes"
>>> category_label("NC1=NC(c2ccc(Cl)cc2)n2c(nc3ccccc32)N1 (stereo unspecified)")
"no"

Next, consider the following compound.
Prompt: Hello, I'm reviewing records and need to know if fluorescence slope of O=S(=O)(c1ccc(OCC(O)CN2CCC(Cc3ccccc3)CC2)cc1)N1CCOCC1 (stereo unspecified) is below 0.005. Could you check?
Completion: no

---

Assay: inhibitors of TNFa-induced NFkB p65 translocation, primary screen, imaging, HUVEC, MLSMR starter and 10KST1 sets (AID 438);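 note: compound added about 3h40 before a 20 min TNFalpha stimulation; signal is the nuclear over cytoplasmic p65 intensity ratio per well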
Conditions: HUVEC TNFa-induced p65 nuclear translocation; at 2 µM, stronger effect = higher value, 0% TNFa-plus-vehicle, 100% no-TNFa wells
Measure name: inhibition (%)
# unit: % | format: bare number

Some compounds with known inhibition results, for comparison:
>>> result_number("COc1ccccc1-c1nc(C#N)c(N2CCN(c3ccccc3)CC2)o1")
-10.2
>>> result_number("C=CCSc1nnc(Cc2c(C)[nH]c3ccccc23)o1")
3.5

Prompt: Need inhibition, item CC(=O)Nc1cccc(NC(=O)C2CCCN2C(=O)Nc2ccc(C)cc2)c1 (stereo unspecified)
Completion: -3.2

Prompt: Which inhibition value belongs to CCCCSc1nc(CCC)cc(=O)[nH]1 ?
Completion: -0.3

Prompt: Field request: inhibition | item: CCn1nnnc1SCC(=O)N1CCOCC1
Completion: 11.3

Prompt: Param item = CCCCOCCCNC(=O)COc1ccccc1 ; retrieve measured inhibition.
Completion: -3.4

Prompt: May I ask what inhibition has been recorded for O=S(=O)(c1ccc(OCC(O)CN2CCC(Cc3ccccc3)CC2)cc1)N1CCOCC1 (stereo unspecified) ?
Completion: 4.8

Prompt: # lookup: inhibition of O=C(NCC1CCCO1)c1cccc(N2C(=O)C3C4C=CC(C4)C3C2=O)c1 (stereo unspecified)
Completion: 8.8

---

Biological target: Voltage-gated potassium channel subunit beta-2 (Rattus norvegicus)
Test: inhibitors of rat Kvbeta2 reductase activity – biochemical, NADPH fluorescence, primary screen (AID 622);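 note: slope of raw intensity against log time taken from 70 to 1610 s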
Conditions: recombinant KvBeta, 4-cyanobenzaldehyde reduction, at 10 µM, stronger effect = higher value
The threshold is inclusive: fluorescence slope of exactly -0.4 counts as criterion met; values below receive criterion not met.

Consider the following illustrative entries.
>>> category_label("CCOC(=O)c1sc(NC(=O)CNC(=O)Cn2cnc3sc(C)c(C)c3c2=O)nc1C")
"criterion not met"
>>> category_label("O=C(CSc1ncn[nH]1)c1ccco1")
"criterion not met"
>>> category_label("CCC(=NC(C)c1ccccc1)c1c(O)n(C)c(=O)n(C)c1=O (stereo unspecified)")
"criterion not met"
>>> category_label("COc1ccccc1OCc1ccc(C(=O)Nc2ccncc2)o1")
"criterion not met"
>>> category_label("C=CCC1(O)C(=O)Nc2ccccc21 (stereo unspecified)")
"criterion met"

Okay, next one:
Prompt: Item Cc1nn(C(=O)c2ccccc2)c2c1C(=O)CC(C)(C)C2 with fluorescence slope of -0.4 or above?
Completion: criterion not met

---

Below, each of the compounds is paired with its reported inhibition value.
Experiment: blockers of RIG-like receptor reporter activation – cell-based, Sendai virus stimulus, luciferase, 10K MLSCN set, TLR/RLR signaling modifier project, primary screen (AID 602276);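 note: firefly luciferase from ISG56 promoter only with Renilla not read in this screen; 0% = Sendai virus plus DMSO and 100% = medium plus DMSO without virus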
Conditions: HEK293 RL24 IRF3 luciferase reporter, at 10 µM, stronger effect = higher value
Note: unit % is implicit; provide only the numeric part.

>>> result_number("CC(=O)N1CCC2(CC1)CC(=O)c1cc(OCC(=O)NCc3ccco3)ccc1O2")
-7.82
>>> result_number("CCCN(CCC)CCCNS(=O)(=O)c1ccc2c(c1)oc(=O)n2C")
16.6
>>> result_number("Cc1cc(C(=O)Nc2sc3c(c2C#N)CCCCC3)cs1")
-33.9
>>> result_number("O=C(NCCCN1CCN(Cc2ccccc2)CC1)C1CCN(c2nnc(-n3cccc3)s2)CC1")
-19.7
>>> result_number("O=C(CCn1c(=O)c2ccccc2n(CC(=O)NCCC2=CCCCC2)c1=O)NCc1ccco1")
-4.87
>>> result_number("CC(=O)Nc1ccc(Cl)cc1C(=O)O")
20.8
>>> result_number("CCOc1cc(N2CCOCC2)c(OCC)cc1NC(=O)COC(=O)CCc1c[nH]c2ccccc12")
2.83
>>> result_number("CCOC(=O)c1sc(NC(=O)COC(=O)Cn2cnc3ccccc32)c(C(=O)OCC)c1C")
13.7
>>> result_number("COc1cc2cc(C(c3nnnn3C3CCCC3)N3CCCCCC3)c(=O)[nH]c2cc1OC (stereo not given)")
17

Please find the next compound below.
Prompt: Returns the measured inhibition for the input compound. Input: CCn1cc(C(=O)OCC(=O)OC2CC(C)CCC2C(C)C)c(=O)c2ccc(C)nc21 (stereo not given)
Completion: 18.5

---

Listed below: nuclei count values for each entry.
Experiment: endothelial E-selectin expression blockers – imaging, HUVEC, immunofluorescence, MLSMR starter and 10KST1 sets, primary screen (AID 487);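 note: 100% = median nuclei count of all wells on the same plate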
Conditions: HUVEC TNFalpha-induced E-selectin immunofluorescence imaging, at 2 µM; measured here: cell number, toxicity
Please respond with the number in % and leave the unit unwritten.

Consider the reported nuclei count for these molecules:
>>> result_number("Cn1c(=O)cc(OCC(=O)NCCCN2CCN(Cc3ccccc3)CC2)c2ccccc21")
135
>>> result_number("O=C(Cc1cccs1)N(c1ccccc1)C1C=CS(=O)(=O)C1 (configuration not stated)")
88.2
>>> result_number("CCn1c(=O)cc(SCC(=O)NCCN2CCN(Cc3ccccc3)CC2)c2ccccc21")
108
>>> result_number("O=C1CCC(c2ccccc2)N1C(=O)c1cccnc1 (configuration not stated)")
111
>>> result_number("CCCn1nnc(NCc2ccc(OCc3cccs3)c(OC)c2)n1")
99

Prompt: Return reported nuclei count; argument: O=C(CN1C(=O)COc2ccccc21)NCCN1CCc2ccccc2C1
Completion: 92.7

Prompt: Consider the molecule Cc1cc(NC(c2cccnc2)c2c(C)[nH]c3ccccc23)no1 (configuration not stated) and give its measured nuclei count.
Completion: 135

Prompt: Report nuclei count for O=C1NCC(COCc2ccccc2)O1 (configuration not stated) please.
Completion: 102

Prompt: Quick check: nuclei count of Cc1cc(=O)oc(C)c1C(=O)O ?
Completion: 114

Prompt: Any idea what nuclei count was measured for CN(C(=O)C1CCOC1)c1nnc(-c2cccnc2)s1 (configuration not stated) ?
Completion: 116

Prompt: Give the measured nuclei count of Cn1c(CSc2nc3ccccc3s2)nnc1SCC(=O)NCCN1CCOCC1 .
Completion: 125

Prompt: nuclei count lookup needed for Cc1cccc(C(=O)N(C)c2nnc(-c3ccncc3)s2)c1 , thanks.
Completion: 102

---

Listing of recorded nuclei count by entry.
Assay: endothelial E-selectin expression blockers – imaging, HUVEC, immunofluorescence, MLSMR starter and 10KST1 sets, primary screen (AID 487);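 note: 100% = median nuclei count of all wells on the same plate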
Conditions: HUVEC TNFalpha-induced E-selectin immunofluorescence imaging, at 2 µM; measured here: cell number, toxicity
The answer is to be given in %; state only the numeric part.

Solved entries (count: 5):
>>> result_number("COc1ccccc1NC1=C(C)C(=O)CC1")
102
>>> result_number("Cc1c(NC(=O)C(C)OC(=O)C(NC(=O)c2ccco2)C(C)C)c(=O)n(-c2ccccc2)n1C (stereo unspecified)")
106
>>> result_number("O=C(c1ccc(=O)[nH]c1)N(Cc1ccco1)C1(C(=O)NC2CCCC2)CCCCC1")
104
>>> result_number("Cc1ccc(F)cc1NC(=O)C1CCCN(c2ncccn2)C1 (stereo unspecified)")
118
>>> result_number("O=C(Nc1sccc1C(=O)NCc1ccco1)c1cccnc1")
119

Moving on to another molecule below.
Prompt: Field request: nuclei count | item: CCOC(=O)c1c(C)oc2ccc(OCC(N)=O)cc12
Completion: 93.5

---

The entries below are paired with their reported NADPH fluorescence slope.
Target: Voltage-gated potassium channel subunit beta-2 (Rattus norvegicus)
Experiment: enhancers of rat Kvbeta2 NADPH turnover – biochemical, NADPH fluorescence, primary screen (AID 623);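 note: fluorescence intensity change per second fitted from 20 to 320 s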
Conditions: Recombinant KvBeta, NADPH fluorescence decrease slope, 10 min; at 10 µM; stronger effect = lower value
// print number alone

Observe how each entry below is paired with its result.
>>> result_number("O=S(=O)(Cc1ccccc1)N1CCN(Cc2ccccc2)CC1")
"4.9e-05"
>>> result_number("Cc1cc(=O)oc(C)c1C(=O)O")
-0.000139
>>> result_number("Cn1c(C(=O)NCCCN2CCN(c3ccc(F)cc3)CC2)cc2c(=O)n(C)c3ccccc3c21")
"-6.1e-05"
>>> result_number("COc1ccc(S(=O)(=O)NCc2ccc3c(c2)OCO3)cc1C(=O)O")
"-8.9e-06"
>>> result_number("CCCCC(CC)Cn1c2nc3ccccc3nc2c2c(=N)oc(C)nc21 (stereo unspecified)")
"4.4e-06"

Prompt: Looking for the measured NADPH fluorescence slope of OCCNCC(O)Cn1ccc2ccccc21 (stereo unspecified) , can you help?
Completion: -5e-05

Prompt: Reported NADPH fluorescence slope for Cc1sc2c(c1C)CN(C1CC(C)(C)NC(C)(C)C1)CN2C(=O)c1ccco1 : what is it?
Completion: -2.6e-05
